// provenance: PubChem BioAssay AID1159580

Method: chemical genetic growth profiling, strain panel (AID 1159580);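 also: tested at 20 µM; growth read once vehicle control cultures reached saturation at 30 °C; 1 = growth at the plate median or of vehicle wells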
Experimental Conditions: S. cerevisiae deletion strains, growth OD, locus YKR091W, strain srl3, stronger effect = lower value
Hit rate of the full screen: of about 5,500 compounds, about 2,000 (36%) were called active. Inconclusive results (about 18%) are left out. The list shows a part of the results.
Readout: normalized growth
One number for each entry.

- Compound: "CCCCN1CCCCC1C(=O)Nc1c(C)cccc1C (configuration not stated)"
  normalized growth: 0.982

Provide normalized growth values for the following items, in order.
1. CC(=O)OCC(OC(C)=O)C(OC(C)=O)C(OC(C)=O)C(OC(C)=O)C(COC(C)=O)OC(C)=O (configuration not stated)
2. C=CCCCCCCCCCCCC(O)CC(O)COC(C)=O (configuration not stated) (tested in a mixture with another compound)
3. COc1cc2c(cc1OC)C1Cc3ccc(OC)c(OC)c3CN1CC2 (configuration not stated)

[A]
1: 0.991; 2: 0.975; 3: 0.98

List reported normalized growth for each of these compounds:
1. CC(=O)OCC[C@H](C)CCC=C(C)C
2. Nc1ccn(C2O[C@H](CO)[C@@H](O)[C@@H]2O)c(=O)n1 (some centres not stated)
3. O=C(Cn1ccnc1[N+](=O)[O-])NCCO
4. CC(C)NCC(O)c1cc(O)cc(O)c1 (configuration not stated)

[A]
1: 0.986; 2: 0.997; 3: 1.01; 4: 0.986

* * *

Method: chemical genetic growth profiling, strain panel (AID 1159580)
Experimental Conditions: S. cerevisiae deletion strains, growth OD, locus YPL055C, strain LGE1, stronger effect = lower value
The campaign covered roughly 5,500 compounds. About 2,000 (36%) were called active. Not shown: some 18% with an inconclusive outcome. This is one part of the list.
Lab note: anything with normalized growth below 1 is marked 1 (yes); values at 1 or higher are marked 0 (no).

- Chemical Smiles: "CCCn1c(=O)c(C#N)cn(-c2ccc(Cl)cc2)c1=O"
  Label Value: "0 (no)"

Moving on to another compound below.
[Q] Is the reported normalized growth for "Clc1cccc(NC2=NCCS2)c1Cl" strictly below 1?
[A] 1 (yes)

* * *

Method: chemical genetic growth profiling, strain panel (AID 1159580)
Experimental Conditions: S. cerevisiae deletion strains, growth OD, locus YLR258W, strain gsy2, stronger effect = lower value
The campaign covered roughly 5,500 compounds. About 2,000 (36%) were called active. Another 18% or so got no clear call; they are omitted. The list shows a part of the results.
I'd be grateful if you could share measured normalized growth for these entries.
Give bare numbers.

Example cases with answers are listed next.
- Molecule: "CC(C(=O)O)c1ccc(C(=O)c2cccs2)cc1 (stereo not drawn)"
  Value: 1
- Molecule: "COC(=O)C(C)c1ccc(C(=O)c2cccs2)cc1 (stereo not drawn)"
  Value: 1.02
- Molecule: "COC(=O)C(O)c1ccccc1 (stereo not drawn)"
  Value: 1.02

I'm hoping you can list normalized growth for every molecule here, please.
1. CC(C)NCC(O)c1cc(O)cc(O)c1 (stereo not drawn)
2. O=C(O)CN1C(=O)c2cccc3cccc(c23)C1=O
3. CC(C)NNC(=O)c1ccncc1
4. O=c1cc(-c2ccccc2O)oc2cc(O)ccc12

[A]
0.993
0.988
1.02
0.994

Give me normalized growth for each of these molecules, listed below.
1. COC(=O)C[C@H]1C(C)(C)C(=O)[C@@H]2CC3=C(CC[C@]4(C)C3=CC(=O)O[C@H]4c3ccoc3)[C@@]1(C)C2=O
2. C[N+]1(C)C2CC(OC(=O)[C@@H](CO)c3ccccc3)CC1C1OC12 (stereo partly drawn)
3. CO/N=C(\C(=O)NC1C(=O)N2C(C(=O)OC(C)OC(C)=O)=C(COC(N)=O)CSC12)c1ccco1 (stereo not drawn)
4. CC(=O)N[C@@H](CS)C(=O)O
5. CCCCN1CCCCC1C(=O)Nc1c(C)cccc1C (stereo not drawn)
6. Cn1c(=O)c2[nH]cnc2n(C)c1=O

[A]
[0.961, 0.969, 0.995, 1.01, 0.992, 1.02]

Dear colleague, could you please provide normalized growth for the molecules listed below?
1. CO/N=C(\C(=O)NC1C(=O)N2C(C(=O)O)=C(COC(N)=O)CSC12)c1ccco1 (stereo not drawn)
2. COC(=O)C1=CCCN(C)C1

[A]
[0.975, 1.01]

Items follow; give normalized growth for each.
1. C=CCSCC1Nc2cc(Cl)c(S(N)(=O)=O)cc2S(=O)(=O)N1 (stereo not drawn)
2. C=C1C(=O)O[C@@H]2C3O[C@]3(C)CC/C=C(\C)CC[C@@H]12 (stereo partly drawn)
3. CCOC(=O)[C@H](CCc1ccccc1)N[C@@H](C)C(=O)N1[C@H](C(=O)O)C[C@@H]2CCC[C@@H]21

[A]
1. 0.998
2. 0.999
3. 0.991

* * *

Method: chemical genetic growth profiling, strain panel (AID 1159580)
Experimental Conditions: S. cerevisiae deletion strains, growth OD, locus YLR370C, strain arc18, stronger effect = lower value
Screen size: about 5,500 compounds; about 2,000 (36%) were called active. Roughly 18% stayed inconclusive and do not appear here. The list shows a part of the results.
Readout: normalized growth
Give bare numbers.

Example entries begin here.
- Compound: "CC(C)NCC(O)c1cc(O)cc(O)c1 (centres undefined)"
  normalized growth: 0.975
- Compound: "COC(=O)C[C@H]1C(C)(C)C(=O)[C@@H]2CC3=C(CC[C@]4(C)C3=CC(=O)O[C@H]4c3ccoc3)[C@@]1(C)C2=O"
  normalized growth: 0.956
- Compound: "CC[C@H](C)C(=O)O[C@H]1CCC=C2C=C[C@H](C)C(CCC3C[C@@H](O)CC(=O)O3)[C@H]21 (some centres undefined)"
  normalized growth: 1

Give measured normalized growth for every item shown.
1. O=C(C1CCCCC1)N1CC(=O)N2CCc3ccccc3C2C1 (centres undefined)
2. O=C(O)CN(CC(=O)O)Cc1cc2c(-c3ccccc3C(=O)O)c3cc(CN(CC(=O)O)CC(=O)O)c(=O)cc-3oc2cc1O
3. C[C@@H]1C(=O)OC2[C@H](O)C34[C@@H]5OC(=O)[C@@]3(O[C@@H]3OC(=O)[C@H](O)[C@@]34[C@H](C(C)(C)C)[C@H]5O)[C@]21O (some centres undefined)
4. CC[C@H](C)C(=O)O[C@H]1C[C@@H](C)C=C2C=C[C@H](C)[C@H](CC[C@@H]3C[C@@H](O)CC(=O)O3)[C@H]21
5. CO[C@@]1(NC(=O)CSCC#N)C(=O)N2C(C(=O)O)=C(CSc3nnnn3C)CSC21 (some centres undefined)
6. CCOC(=O)Nc1nc2ccccc2[nH]1

[A]
1.02
0.964
0.97
1.02
0.984
0.986

* * *

Method: chemical genetic growth profiling, strain panel (AID 1159580);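 also: tested at 20 µM; growth read once vehicle control cultures reached saturation at 30 °C; 1 = growth at the plate median or of vehicle wells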
Experimental Conditions: S. cerevisiae deletion strains, growth OD, locus YHR030C, strain SLT2, stronger effect = lower value
About 2,000 (36%) of roughly 5,500 compounds were called active. Roughly 18% stayed inconclusive and do not appear here. The list shows a part of the results.
The threshold is 0.9. Values of normalized growth beneath it are tagged condition met; values meeting or exceeding it are tagged condition not met.

- Compound: "Cc1onc(-c2c(F)cccc2Cl)c1C(=O)NNc1cc(Cl)cc(Cl)c1"
  Label Value: "condition not met"

[Q] Say whether its normalized growth is strictly beneath 0.9. Entry: "CC1(C)OC(=O)C(=Cc2cccn2-c2ccc(C(F)(F)F)cc2)C(=O)O1"
[A] condition met

[Q] Please check: normalized growth for "Cc1onc(-c2c(Cl)cccc2Cl)c1C(=O)Oc1ccc(Cl)c(Cl)c1" , strictly under 0.9 or not?
[A] condition not met

[Q] Is normalized growth of "FC(F)(F)c1cccc(-n2c(CSCc3cccc4ccccc34)n[nH]c2=S)c1" strictly below 0.9?
[A] condition not met

* * *

Method: chemical genetic growth profiling, strain panel (AID 1159580);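 also: tested at 20 µM; growth read once vehicle control cultures reached saturation at 30 °C; 1 = growth at the plate median or of vehicle wells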
Experimental Conditions: S. cerevisiae deletion strains, growth OD, locus YHR142W, strain chs7
The campaign covered roughly 5,500 compounds. About 2,000 (36%) were called active. Inconclusive results (about 18%) are left out. No stated cut-off is given here; in the data, active means normalized growth mostly below about 0.91 (no sharp cut-off); inconclusive means no clear call, values can overlap the other calls; inactive means mostly above about 0.92. Some of the results follow.
Hi! Could you answer with just one of these? Y for active, N for inactive

- Molecule: "O=C1CC2OCC=C3CN4CC[C@]56c7ccccc7N1C5[C@H]2[C@H]3CC46 (stereo not given in full)"
  Label Value: "N"
- Molecule: "CC(C)NCC(O)COc1cccc2ccccc12 (stereo not given)"
  Label Value: "N"

Kindly review the next molecule as well.
[Q] Dear colleague, could you share the recorded outcome for C=CCSCC1Nc2cc(Cl)c(S(N)(=O)=O)cc2S(=O)(=O)N1 (stereo not given) when you have a moment?
[A] N

* * *

Give measured normalized growth for each item. Keep answers brief.
Method: chemical genetic growth profiling, strain panel (AID 1159580);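 also: tested at 20 µM; growth read once vehicle control cultures reached saturation at 30 °C; 1 = growth at the plate median or of vehicle wells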
Experimental Conditions: S. cerevisiae deletion strains, growth OD, locus YBR231C, strain swc5, stronger effect = lower value
Screen size: about 5,500 compounds; about 2,000 (36%) were called active. Inconclusive results (about 18%) are left out. Some of the results follow.
One number for each entry.

- Compound: "CCCCN(CCCC)CCCOC(=O)c1ccc(N)cc1"
  normalized growth: 1
- Compound: "O=C1C=C2C=C[C@@H]3C[C@@]2(O1)[C@H]1CCCCN31"
  normalized growth: 0.977
- Compound: "C=CCCCCCCCCCCCC(O)CC(O)COC(C)=O (configuration not stated) (tested in a mixture with another compound)"
  normalized growth: 0.971
- Compound: "CC(C)[C@@H]1CC[C@@H](C)C[C@H]1O"
  normalized growth: 0.988
- Compound: "CC(=O)OCC[C@H](C)CCC=C(C)C"
  normalized growth: 0.986

Record normalized growth per entry; entries follow.
1. C#CCCCCCCCCCCCC(O)CC(O)COC(C)=O (configuration not stated)
2. CCOC(=O)c1ccc(O)cc1
3. CCCCOC(=O)c1ccccc1C(=O)OCCCC
4. CC(=O)OCC(OC(C)=O)C(OC(C)=O)C(OC(C)=O)C(OC(C)=O)C(COC(C)=O)OC(C)=O (configuration not stated)
5. CCOC(=O)[C@H](CCc1ccccc1)N[C@@H](C)C(=O)N1[C@H](C(=O)O)C[C@@H]2CCC[C@@H]21
6. CCCCCCOc1ccccc1C(N)=O
7. C#CCCCCCCCCCCCC(O)CC(O)CO (configuration not stated)

[A]
0.962
1.02
0.983
0.989
0.982
0.922
0.993
